system tested: Huntingtin (Homo sapiens)
assay: mutant huntingtin-calmodulin interaction inhibitors – biochemical, AlphaScreen, primary screen (AID 1671202);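 also: 0% = both proteins with DMSO and 100% = one protein alone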
experimental parameters: AlphaScreen His-mHTT/GST-CaM binding, luminescence; at 15 µM, active compounds read high
The whole screen tested about 190,000 compounds, of which about 6,900 (3.6%) were called active. Many of the other results were omitted from the sample, so actives are more common in it than they were.

| compound | inhibition [%] |
| --- | --- |
| Cc1ccc(CCNC(=O)c2cc3n(n2)CCCN(Cc2ccc(Cl)cc2)C3=O)cc1 | 27.7 |
| O=C(Nc1ccccc1)Oc1cccc2cccnc12 | 93.6 |
| c1ccc(-c2n[nH]c(C3CCCN(Cc4ccccn4)C3)n2)cc1 (centres undefined) | 100 |
| CC(=O)c1ccc(OCC(O)CNC2CCCC2)cc1 (centres undefined) | -0.4 |
| COc1ccc(-c2nc(-c3cccc(-c4ccnn4C)c3)no2)cc1F | -14.7 |
| O=C1NC(c2cccc([N+](=O)[O-])c2)C(=C(O)c2ccc(Br)cc2)C1=O (centres undefined) | 7.7 |
| O=C(Nc1ccc(Cl)cc1)c1ccc2nc3ccccc3nc2c1 | 13.5 |
| Cc1[nH]nc(-c2ccc(S(=O)(=O)N3CCC(N4CCCCC4)CC3)s2)c1C | 7.48 |
| COc1cccc(C2Nc3ccc(C(=O)O)cc3C3C=CCC32)c1OC (centres undefined) | 15 |
| Cc1ccccc1N1CCN(C(=O)Cc2cn(C)c3ncccc23)CC1 | 10.1 |
| COc1ccc(C(=O)Nc2ccccc2F)cc1OC | -1.2 |
| COc1cc(C=C(C#N)c2nc(-c3ccc4c(c3)OCO4)cs2)cc(OC)c1OC(C)=O | -4.5 |
| O=C(Nc1ccccc1[N+](=O)[O-])c1c(F)cccc1F | 2.8 |
| O=C(CCS(=O)(=O)Cc1ccccc1F)NCCCN1CCCCC1 | 1 |
| O=c1[nH]c(CSCCO)nc2c1C1(CCCCC1)Cc1ccccc1-2 | 16.8 |
| COc1ccc(CCNc2nc(C)nc3sc(C)cc23)cc1OC | 0 |
| O=C1CCCC2=C1C(c1cccc([N+](=O)[O-])c1)C1C(=O)c3ccccc3C1=N2 (centres undefined) | 10 |
| c1ccc(-c2n[nH]c(C3CCN(Cc4cccnc4)CC3)n2)cc1 | 9.4 |
| COCc1cc(C)nc2sc(C3=NC(C)(C)Cc4ccccc43)c(N)c12 | 58 |
| CCCCN(C)Cc1c(O)ccc2c1OC(=Cc1cc(OC)c(OC)c(OC)c1)C2=O | -3.1 |
| Cc1ccc(COCc2nn(C)c3c2CN(C(=O)Nc2cccc(C)c2)CC3)cc1 | 30.3 |
| COc1cccc(C=C2Oc3c(ccc(O)c3CN(C)Cc3ccccc3)C2=O)c1OC | 93.1 |
| Cc1cccc(NC(=O)c2nc(-c3cccc(F)c3)n3c2CCCCC3)n1 | 43.6 |
| CC(=O)NCCN1C(=O)C(=O)C(=C(O)c2ccc(Cl)cc2)C1c1ccc(Br)cc1 (centres undefined) | -0.6 |
| Cc1ccccc1-n1c(=O)n(C2CC2)c(=O)c2c1ncn2Cc1c(F)cccc1F | -4.6 |
| COc1ccc(NC(=O)Nc2cccc3cccnc23)cc1 | 11.4 |
| COc1ccc2oc(=O)c(-c3nnc(Nc4ccc(C)cc4)s3)cc2c1 | 3 |
| N#C/C(=C\c1ccccc1F)c1nc(-c2cccc([N+](=O)[O-])c2)cs1 | 5.7 |
| O=C(O)c1ccccc1-c1ccccc1C(=O)Nc1cccc2cccnc12 | 8.7 |
| CCc1ccc(OCC(O)CN2CCN(c3ccccc3F)CC2)cc1 (centres undefined) | -21.8 |
| CC1CCCN(c2ccc(-c3noc(CN(C)C4CCCCC4)n3)cn2)C1 (centres undefined) | 10 |
| O=C(c1c(F)cccc1F)N1CCN(S(=O)(=O)C2CC2)CC1 | -10.4 |
| CCCCC(=O)Nc1n[nH]c(C)c1-c1ccc(Cl)cc1 | 2.8 |
| COCc1cc(C)nc2sc(C(N)=O)c(N)c12 | -5 |
| Cn1cc(CCN2CCN(C(=O)c3ccc(C(F)(F)F)cc3)CC2)c2cccnc21 | 54.6 |
| CCCn1ncc(N2CCC(C(=O)NCCCN3CCOCC3)CC2)cc1=O | -2.54 |
| CC(C)N1C(=O)C(C)N(C(=O)NCc2ccc(F)cc2)c2cccnc21 (centres undefined) | 10.9 |
| Cc1ccc(C(=O)N2CCC(CC(=O)NCCN3CCCCCC3)CC2)cc1 | 13.3 |
| N#CCSc1nc2c(c(=O)n1Cc1ccccc1)C1(CCCC1)Cc1ccccc1-2 | -2.7 |
| O=[N+]([O-])c1ccc(N2CCN(CC3CC4C=CC3C4)CC2)cc1 (centres undefined) | 19.4 |
| CCOc1ccc(NC(=O)N2CC(C)Oc3ccc(C)cc32)cc1 (centres undefined) | 1.01 |
| COc1ccc(C2C3=C(CC(C)(C)CC3=O)N=C3c4ccccc4C(=O)C32)cc1 (centres undefined) | 62 |
| Cc1nc(-c2ccccc2)oc1CC(=O)NCCN1CCCCCC1 | 100 |
| CC1C(=O)N(c2ccccc2-c2ccccc2)CCN1C(=O)C1CCCC1 (centres undefined) | 3.1 |
